Target: UniProt P49146
Sequence (P49146 whole entry): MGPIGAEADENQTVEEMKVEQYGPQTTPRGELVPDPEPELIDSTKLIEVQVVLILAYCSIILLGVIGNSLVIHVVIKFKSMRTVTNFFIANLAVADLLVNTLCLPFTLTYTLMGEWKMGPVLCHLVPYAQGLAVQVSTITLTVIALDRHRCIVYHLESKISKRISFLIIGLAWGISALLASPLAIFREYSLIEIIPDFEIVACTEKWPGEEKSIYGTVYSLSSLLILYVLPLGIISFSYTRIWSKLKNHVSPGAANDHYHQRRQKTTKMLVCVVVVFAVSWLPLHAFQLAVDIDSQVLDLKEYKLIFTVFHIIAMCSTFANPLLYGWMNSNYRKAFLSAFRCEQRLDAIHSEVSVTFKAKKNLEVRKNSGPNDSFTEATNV
Assay: Displacement of [3H]UR-MK299 from human neuropeptide Y Y2 receptor expressed in CHO cells measured after 90 mins by scintillation counting analysis
Assay type: cell-based
Conditions: read-out: pKi (converted)
Starred links: 1 amine or outer side, 2 acyl side, 3 side chain; linkers in the order of their positions; H or OH if unused. Residues, ends and D or L forms follow the SMILES beside them. Groups on a side chain read outwards from the residue. *: point of attachment. Suc = O=C(CCC(=O)[*:2])[*:1]; NH(CH2)4NH2 = NCCCCN*; CO = O=C([*:1])[*:2]; NH(CH2)3NH2 = NCCCN*
What Ki was measured for each of the following?

COMPOUND	STUDY SYSTEM	Ki
N=C(N)NCCC[C@H](NC(=O)CCC(=O)O)C(=O)N[C@@H](Cc1ccc(O)cc1)C(=O)N[C@@H](CCCNC(=N)NC(=O)NCCCN)C(=O)N[C@@H](Cc1c[nH]c2ccccc12)C(=O)N[C@@H](CCCNC(=N)N)C(=O)N[C@@H](Cc1ccc(O)cc1)C(N)=O (Suc-RYR([CO-NH(CH2)3NH2])WRY-NH2)	UniProt P49146	> 3.16 µM

Respectfully, I request Ki for each entry included below.
1. N=C(N)NCCC[C@H](NC(=O)CCC(=O)O)C(=O)N[C@@H](Cc1ccc(O)cc1)C(=O)N[C@@H](CCCNC(=N)NC(=O)NCCCCN)C(=O)N[C@@H](Cc1c[nH]c2ccccc12)C(=O)N[C@@H](CCCNC(=N)N)C(=O)N[C@@H](Cc1ccc(O)cc1)C(N)=O (single isomer, unassigned)
2. CC(=O)N[C@@H](CCCNC(=N)N)C(=O)N[C@@H](Cc1ccc(O)cc1)C(=O)N[C@@H](CCCNC(=N)N)C(=O)N[C@@H](CC(C)C)C(=O)N[C@@H](CCCNC(=N)N)C(=O)N[C@@H](Cc1ccc(O)cc1)C(N)=O
3. N=C(N)NCCC[C@@H]1NC(=O)CCC(=O)NCCCNC(=O)NC(=N)NCCC[C@@H](C(=O)N[C@@H](Cc2c[nH]c3ccccc23)C(=O)N[C@@H](CCCNC(=N)N)C(=O)N[C@@H](Cc2ccc(O)cc2)C(N)=O)NC(=O)[C@H](Cc2ccc(O)cc2)NC1=O (HELM PEPTIDE1{R.Y.[N=C(NCCC[C@H](N[*:1])C(=O)[*:2])N[*:3]].W.R.Y.[am]}|CHEM1{[O=C(CCC(=O)[*:1])NCCCNC(=O)[*:2]]}$PEPTIDE1,CHEM1,1:R1-1:R1|PEPTIDE1,CHEM1,3:R3-1:R2$$$V2.0)
4. CC(C)C[C@H](NC(=O)[C@H](CCCNC(=N)NC(=O)NCCCCN)NC(=O)[C@H](CCCNC(=N)N)NC(=O)CCC(=O)O)C(=O)N[C@@H](CCCNC(=N)N)C(=O)N[C@@H](Cc1ccc(O)cc1)C(N)=O (Suc-RR([CO-NH(CH2)4NH2])LRY-NH2)
5. CC(C)C[C@H](NC(=O)[C@H](CCCNC(=N)N)NC(=O)[C@@H]1CCC(=O)N[C@@H](CCCNC(=N)N)C(=O)NCC(=O)N[C@@H](Cc2ccc(O)cc2)C(=O)N1)C(=O)N[C@@H](CCCNC(=N)N)C(=O)N[C@@H](Cc1ccc(O)cc1)C(N)=O (HELM PEPTIDE1{R.G.Y.E.R.L.R.Y.[am]}$PEPTIDE1,PEPTIDE1,1:R1-4:R3$$$V2.0)
6. CC(C)C[C@H](NC(=O)[C@@H]1CCCNC(=N)NC(=O)NCCCCNC(=O)CCC(=O)N[C@@H](CCCCN)C(=O)N[C@@H](Cc2ccc(O)cc2)C(=O)N1)C(=O)N[C@@H](CCCNC(=N)N)C(=O)N[C@@H](Cc1ccc(O)cc1)C(N)=O (HELM PEPTIDE1{K.Y.[N=C(NCCC[C@H](N[*:1])C(=O)[*:2])N[*:3]].L.R.Y.[am]}|CHEM1{[O=C(CCC(=O)[*:1])NCCCCNC(=O)[*:2]]}$PEPTIDE1,CHEM1,1:R1-1:R1|PEPTIDE1,CHEM1,3:R3-1:R2$$$V2.0)
7. CC(C)C[C@H](NC(=O)[C@H](CCCNC(=N)NC(=O)NCCCN)NC(=O)[C@H](Cc1ccc(O)cc1)NC(=O)[C@H](CCCNC(=N)N)NC(=O)CCC(=O)O)C(=O)N[C@@H](CCCNC(=N)N)C(=O)N[C@@H](Cc1ccc(O)cc1)C(N)=O

["> 3.16 µM", "> 3.16 µM", "> 10 µM", "> 10 µM", "> 10 µM", "> 10 µM", "> 10 µM"]

Respectfully, I request Ki for each entry included below.
1. N=C(N)NCCC[C@@H]1NC(=O)CCC(=O)NCCCCNC(=O)NC(=N)NCCC[C@@H](C(=O)N[C@@H](Cc2c[nH]c3ccccc23)C(=O)N[C@@H](CCCNC(=N)N)C(=O)N[C@@H](Cc2ccc(O)cc2)C(N)=O)NC(=O)[C@H](Cc2ccc(O)cc2)NC1=O (HELM PEPTIDE1{R.Y.[N=C(NCCC[C@H](N[*:1])C(=O)[*:2])N[*:3]].W.R.Y.[am]}|CHEM1{[O=C(CCC(=O)[*:1])NCCCCNC(=O)[*:2]]}$PEPTIDE1,CHEM1,1:R1-1:R1|PEPTIDE1,CHEM1,3:R3-1:R2$$$V2.0)
2. CC(C)C[C@H](NC(=O)[C@@H]1CCCNC(=N)NC(=O)NCCCCNC(=O)CCC(=O)N[C@@H](CCCNC(=N)N)C(=O)N[C@@H](Cc2c[nH]c3ccccc23)C(=O)N1)C(=O)N[C@@H](CCCNC(=N)N)C(=O)N[C@@H](Cc1ccc(O)cc1)C(N)=O
3. CC(C)C[C@H](NC(=O)[C@@H]1CCCNC(=N)NC(=O)NCCCNC(=O)CCC(=O)N[C@@H](CCCNC(=N)N)C(=O)N[C@@H](Cc2ccc(O)cc2)C(=O)N1)C(=O)N[C@@H](CCCNC(=N)N)C(=O)N[C@@H](Cc1ccc(O)cc1)C(N)=O
4. CC(C)C[C@H](NC(=O)[C@H](CCCNC(=N)NC(=O)NCCCCN)NC(=O)[C@H](Cc1ccc(O)cc1)NC(=O)[C@H](CCCCN)NC(=O)CCC(=O)O)C(=O)N[C@@H](CCCNC(=N)N)C(=O)N[C@@H](Cc1ccc(O)cc1)C(N)=O (Suc-KYR([CO-NH(CH2)4NH2])LRY-NH2)

["> 10 µM", "> 10 µM", "> 3.16 µM", "> 10 µM"]

Origin of values: ChEMBL document CHEMBL4840359
